# target_or_system: HLA-A*30:01
# experiment_summary: IEDB peptide-MHC binding, purified MHC/direct/fluorescence; filed as Kd, often an IC50 or EC50 that approximates it; bounds were set here for any values at or beyond the usual limits of such assays
# cond: source organism: Escherichia coli
pKd: −log10 of the molar value.
parameter_measured: pKd

Given NMERKLNLS , respond with its pKd.
≤ 4.70

----------
# target_or_system: HLA-B*40:01
# experiment_summary: IEDB peptide-MHC binding, purified MHC/direct/fluorescence; filed as Kd, often an IC50 or EC50 that approximates it; bounds were set here for any values at or beyond the usual limits of such assays
# cond: source organism: Yersinia pestis
parameter_measured: Kd

Find Kd for SDDQLRLLK on HLA-B*40:01 and write it down.
≥ 20 µM
